# MEASURED ON: Cytochrome P450 1A2 (Homo sapiens) (UniProt P05177)
# Sequence (P05177 whole entry, looked up): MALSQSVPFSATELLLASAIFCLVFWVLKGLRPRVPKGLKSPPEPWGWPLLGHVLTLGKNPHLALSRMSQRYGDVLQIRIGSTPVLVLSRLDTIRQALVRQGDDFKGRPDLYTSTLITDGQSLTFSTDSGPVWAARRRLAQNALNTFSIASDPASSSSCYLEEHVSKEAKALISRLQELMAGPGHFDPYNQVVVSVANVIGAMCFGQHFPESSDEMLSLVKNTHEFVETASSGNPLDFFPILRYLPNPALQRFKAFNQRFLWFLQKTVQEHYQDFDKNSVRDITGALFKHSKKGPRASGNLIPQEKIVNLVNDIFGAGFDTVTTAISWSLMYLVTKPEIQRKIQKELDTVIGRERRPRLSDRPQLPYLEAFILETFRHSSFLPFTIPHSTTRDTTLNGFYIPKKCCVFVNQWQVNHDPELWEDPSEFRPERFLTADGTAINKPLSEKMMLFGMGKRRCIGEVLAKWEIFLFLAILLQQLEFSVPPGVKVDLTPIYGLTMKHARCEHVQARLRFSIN
# PROTOCOL DETAILS: Cytochrome P450 Family 1 Subfamily A Member 2 (CYP1A2) small molecule antagonists: luciferase reporter qHTS assay (AID 1671199); also: nearly all actives have a fitted effect of over 50% in size
# CONDITION: P450-Glo CYP1A2 enzyme, luciferin luminescence, 1 h; series mostly up to 115 µM
Inconclusive results are not listed. The source made the active and inactive calls. Calls follow the shape of the dose curve; as a rule, active = well fitted inhibition curve with a large enough effect in the repeat runs; inconclusive = weak or mixed curves; inactive = no such curve, though single readings can be large or run the other way.
Possible outcomes: active, inactive

MOLECULE | DISCRETE LABEL
CC(C)[C@@H](Nc1ccc(C(F)(F)F)cc1Cl)C(=O)OC(C#N)c1cccc(Oc2ccccc2)c1 (stereo not given in full) | inactive
O=S(=O)(NS(=O)(=O)C(F)(F)F)C(F)(F)F | active
Nc1nc(N)c(N)c(N)n1 | active
CC(C)=CCN1CC[C@@]2(C)c3cc(O)ccc3C[C@@H]1[C@@H]2C | inactive
O=C(N[C@H]1N=C(c2ccccc2F)c2cccc3c2N(CC3)C1=O)c1cc2ccccc2[nH]1 | inactive

Entry source: PubChem BioAssay (Tox21)
